System: HDAC1, 2, 3
Construct: other: range over the three isoforms; other: 237-359 nM compared to 30000 nM
Assay: Fluorescence-based HDAC activity assay with fluorogenic peptide substrate (Reaction Biology)
Format: biochemical
Details: range over the three isoforms; read-out: IC50 against HDAC1, 2, 3
pIC50: −log10 of the molar value.
endpoint: pIC50

Entry O=C(CCCCCCC(=O)Nc1ccc(CO)cc1)NO — recorded pIC50 = 6.44 to 6.63

====

Target: HDAC6 (Homo sapiens)
Sequence (Q9UBN7 1-1215): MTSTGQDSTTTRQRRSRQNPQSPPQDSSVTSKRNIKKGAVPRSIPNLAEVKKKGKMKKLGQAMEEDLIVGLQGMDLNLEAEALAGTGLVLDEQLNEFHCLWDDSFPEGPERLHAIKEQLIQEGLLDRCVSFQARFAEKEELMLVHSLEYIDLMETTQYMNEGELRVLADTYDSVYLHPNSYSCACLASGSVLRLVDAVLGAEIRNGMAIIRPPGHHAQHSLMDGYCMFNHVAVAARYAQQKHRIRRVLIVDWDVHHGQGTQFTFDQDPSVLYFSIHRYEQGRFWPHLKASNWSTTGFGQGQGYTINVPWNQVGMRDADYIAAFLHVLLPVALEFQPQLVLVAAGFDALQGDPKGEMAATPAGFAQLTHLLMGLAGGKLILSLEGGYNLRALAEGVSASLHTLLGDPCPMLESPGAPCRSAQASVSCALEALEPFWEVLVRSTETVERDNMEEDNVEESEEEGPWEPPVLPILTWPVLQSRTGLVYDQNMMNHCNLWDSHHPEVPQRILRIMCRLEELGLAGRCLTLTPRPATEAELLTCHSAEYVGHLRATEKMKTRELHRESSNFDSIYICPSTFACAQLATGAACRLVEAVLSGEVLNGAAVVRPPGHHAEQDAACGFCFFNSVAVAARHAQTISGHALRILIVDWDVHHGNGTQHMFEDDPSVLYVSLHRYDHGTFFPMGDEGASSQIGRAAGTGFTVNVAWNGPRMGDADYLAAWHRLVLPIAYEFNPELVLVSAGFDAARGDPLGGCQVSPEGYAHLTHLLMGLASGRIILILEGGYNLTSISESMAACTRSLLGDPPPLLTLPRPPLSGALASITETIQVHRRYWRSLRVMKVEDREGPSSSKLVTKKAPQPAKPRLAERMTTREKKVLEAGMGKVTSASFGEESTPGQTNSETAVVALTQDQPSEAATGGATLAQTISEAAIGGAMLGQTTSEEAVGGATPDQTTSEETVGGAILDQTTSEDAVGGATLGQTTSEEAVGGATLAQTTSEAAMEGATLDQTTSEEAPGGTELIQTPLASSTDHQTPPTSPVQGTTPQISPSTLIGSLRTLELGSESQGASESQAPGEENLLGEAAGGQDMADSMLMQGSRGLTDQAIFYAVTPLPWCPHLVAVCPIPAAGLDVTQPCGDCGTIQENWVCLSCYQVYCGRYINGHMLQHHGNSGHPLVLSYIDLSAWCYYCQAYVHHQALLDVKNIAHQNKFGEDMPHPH
endpoint: IC50 (µM)
Numbers only, in µM.

The reported HDAC6 (Homo sapiens) IC50 of O=C(CCCCCCC(=O)Nc1ccc(CO)cc1)NO is 0.023
